- Test system: Hs-578T
- protocol-summary: NCI tumour cell line growth inhibition, 48 h
Activity calls are given as the source filed them. Cut-off read from the data, not from the text of the source: active = GI50 up to about 1.1 µM and inactive = higher.
API: response.call in active, inactive

Recorded test outcome, item O=[N+]([O-])c1cc(-[n+]2cc([O-])on2)ccc1Cl
inactive

Subsequent entry: CN(C)CCn1c(=O)c2ccc(NCCCN(C)CCCNc3ccc4c(=O)n(CCN(C)C)c(=O)n5c6ccc(O)cc6c(=O)c3c45)c3c(=O)c4cc(O)ccc4n(c1=O)c23
active

Subsequent entry: Cn1c(=O)c2nc(CSCc3ccccc3)[nH]c2n(C)c1=O
inactive

Subsequent entry: Cn1c(=O)c2c(nc3n(CC(O)CCl)c(=O)ccn23)n(C)c1=O (configuration not stated)
inactive

Subsequent entry: C/C(=C\c1ccccc1)n1c(=O)cc(C)n1C
inactive

Subsequent entry: C=C1C2CC3CCC2C(OC(=O)c2ccccc2C(=O)O)C13 (configuration not stated)
inactive

Subsequent entry: Cn1c2ccccc2c2c3c(=O)[nH][nH]c(=O)c3c3c4ccccc4n(C)c3c21
inactive

Subsequent entry: CC(=O)N1N=C(c2ccc3ccccc3c2O)CC1c1ccc(N(C)C)cc1 (configuration not stated)
inactive

Subsequent entry: CC12CCC(=O)C=C1CCC1C2C(O)CC2(C)C(c3csc(N)n3)CCC12.O=S(=O)(O)c1ccc(Br)cc1 (configuration not stated)
inactive

Subsequent entry: Cc1cc(C)nc(NC(P(=O)(O)O)P(=O)(O)O)n1
inactive

Subsequent entry: Oc1cc(-c2ccc(Cl)cc2)nc2ncccc12
inactive

Subsequent entry: Fc1ccccc1-c1cc(S)c2cc3c(cc2n1)OCO3
inactive

Subsequent entry: CN(Cc1cnc2nc(N)nc(N)c2n1)c1ccc(C(=O)NC(CO)CCCO)cc1 (configuration not stated)
inactive

Subsequent entry: CC(=O)c1c(C)cn(S(=O)(=O)NC(=O)Nc2nncs2)c1C
inactive

Subsequent entry: CC1=CC(=O)CC(C)(C)C1/C=C/C(C)=C/C=C/C(C)=C/C=C/C=C(C)/C=C/C=C(C)/C=C/C1C(C)=CC(=O)CC1(C)C (configuration not stated)
inactive

Subsequent entry: CN(C)C(=S)/N=c1\ssc(=S)n1Cc1cccs1
inactive

Subsequent entry: CN(C)/C=N/S(=O)(=O)c1nn2c(C=O)c(-c3ccc(-c4ccc([N+](=O)[O-])cc4)o3)nc2s1
inactive

Subsequent entry: Cc1cc(S(=O)(=O)Nc2cc(N)n[nH]2)c(SCc2nc(N)nc(N(C)C)n2)cc1Cl
inactive

Subsequent entry: CC(C)c1cc(CN(C)C)c(O)c(C(C)(C)C)c1
inactive

Subsequent entry: Cn1c(=S)sc2nc3ccccc3n2c1=S
inactive

Subsequent entry: COc1ccc(OC)c(-c2cc(=O)c3c(OC)c(OC)c(OC)c(OC)c3o2)c1
inactive

Subsequent entry: O=C(O)c1nc(-c2ccccn2)c(-c2ccccn2)nc1C(=O)O
inactive

====

- System: SNB-75
- protocol-summary: NCI tumour cell line growth inhibition, 48 h
Active and inactive are the calls of the source. No stated cut-off is given here; in the data, active = GI50 up to about 1.1 µM and inactive = higher.
metric: GI50

For CCOC(=O)C1C(=O)c2ccccc2CN1Cc1ccccc1 (stereo not drawn) , what is its reported GI50?
> 100 µM (inactive)

Subsequent entry: CCOC(=O)C1C(c2ccc3c(c2)OCO3)c2c(n[nH]c2O)CC1(C)O (stereo not drawn)
> 100 µM (inactive)

Subsequent entry: O=C1CSC(/C=C/c2ccccc2)N1c1ccc(-n2c(-c3ccccc3)nc3ccccc3c2=O)cc1 (stereo not drawn)
22.6 µM (inactive)

Subsequent entry: COc1ccc(CNc2nc3ccccc3nc2C(=O)O)cc1
93.8 µM (inactive)

Subsequent entry: Cc1cc(C(=O)CBr)c(CN2C(=O)c3ccccc3C2=O)c(=O)n1C
22.8 µM (inactive)

Subsequent entry: COC(=O)CN(CC1O[C@@H]2OC(C)(C)O[C@@H]2C1N=[N+]=[N-])C(=O)OCc1ccccc1 (stereo partly drawn)
> 100 µM (inactive)

Subsequent entry: O=S1(=O)c2ccccc2NC(=S)CC1c1ccccc1 (stereo not drawn)
> 100 µM (inactive)

Subsequent entry: COc1cc([C@@H]2c3cc4c(cc3[C@@H](NCc3ccc(C#N)cc3)C3COC(=O)[C@@H]32)OCO4)cc(OC)c1O (stereo partly drawn)
0.628 µM (active)

Subsequent entry: O=C(NC(Cc1ccc(I)cc1)C(=O)O)c1cccc(Br)c1 (stereo not drawn)
39.2 µM (inactive)

Subsequent entry: Nc1nc(Cl)cc(NCCCCO)n1
65.3 µM (inactive)

Subsequent entry: OCC1CC2C=CCC(C2)C1 (stereo not drawn)
> 100 µM (inactive)

Subsequent entry: Cn1c(=O)c2c(nc3n(CC(O)CCl)c(=O)ccn23)n(C)c1=O (stereo not drawn)
29.1 µM (inactive)

Subsequent entry: CC(=O)Oc1cc(OC(C)=O)c2c(=O)c3ccccc3[nH]c2c1
35.2 µM (inactive)

Subsequent entry: O=C(CCl)Nc1ccc(C(=O)N/N=C/c2ccc(Cl)cc2)cc1
14.9 µM (inactive)

Subsequent entry: CCOC(=O)c1cc(Br)c(-c2onc(C)c2Br)[nH]1
> 100 µM (inactive)

Subsequent entry: Cc1cccc2c1c(=O)c1c(O)cc(O)cc1n2C
39.4 µM (inactive)

Subsequent entry: CCOCc1cc(=O)c2cc3c(cc2o1)OC(C)(C)CC3
> 100 µM (inactive)

Subsequent entry: CCOC(=O)C(=O)Nc1cc(Cl)c(Cl)cc1Cl
> 100 µM (inactive)

Subsequent entry: COc1c2c(cc3nc4ccccc4nc13)CCC(C(C)(C)O)C2 (stereo not drawn)
> 100 µM (inactive)

Subsequent entry: O=C(CSc1nnc(SCC(=O)NN=C2CCCCC2)s1)NN=C1CCCCC1
> 100 µM (inactive)

Subsequent entry: CCCCOCCOC1=C(Cl)C(=O)c2c(O)ccc(O)c2C1=O
0.687 µM (active)

Subsequent entry: Oc1cc(-c2cccs2)nc2cc3c(cc12)OCO3
1.41 µM (inactive)

Subsequent entry: COc1cc(C2c3cc4c(cc3[C@@H](OCCN(C)C)C3COC(=O)[C@H]23)OCO4)cc(OC)c1O (stereo partly drawn)
0.769 µM (active)
